target entity: Cytochrome P450 2C19 (Homo sapiens) (UniProt P33261)
Sequence (P33261 whole entry, looked up): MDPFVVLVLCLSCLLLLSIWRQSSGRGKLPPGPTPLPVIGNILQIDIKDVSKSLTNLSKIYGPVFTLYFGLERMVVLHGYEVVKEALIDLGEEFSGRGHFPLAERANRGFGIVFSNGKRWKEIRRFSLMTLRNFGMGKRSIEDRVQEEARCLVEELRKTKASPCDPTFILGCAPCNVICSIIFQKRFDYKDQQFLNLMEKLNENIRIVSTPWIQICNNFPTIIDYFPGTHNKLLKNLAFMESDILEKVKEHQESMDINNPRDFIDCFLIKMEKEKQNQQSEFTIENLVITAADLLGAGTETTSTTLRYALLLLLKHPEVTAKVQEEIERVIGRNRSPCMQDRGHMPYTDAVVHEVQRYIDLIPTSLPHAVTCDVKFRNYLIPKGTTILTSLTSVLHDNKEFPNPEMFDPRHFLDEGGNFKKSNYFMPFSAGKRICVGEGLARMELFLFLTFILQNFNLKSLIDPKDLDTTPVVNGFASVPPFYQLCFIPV
protocol summary: Cytochrome panel assay with activity outcomes
measurement parameters: recombinant CYP, pro-luciferin dealkylation, luminescence, p450-cyp2c19; series mostly up to 57.1 µM
Hit rate of the full screen: of about 16,000 compounds, about 5,800 (36%) were called active. Roughly 23% stayed inconclusive and do not appear here. Calls follow the shape of the dose curve; as a rule, active = well fitted curve in the direction sought with a large enough effect; inconclusive = small, poorly fitted or top-dose-only effect, or effect the other way; inactive = no such curve, though single readings can be large or run the other way. Some of the results follow.
Possible outcomes: active, inactive

> print(dat)
                                    molecule                             target.entity  label.value
 1  COc1cc2c(C(=O)NCc3ccc(C)o3)cn(CC(C)C)c(=O)c2cc1OC  Cytochrome P450 2C19 (Homo sapiens) (UniProt P33261)       active
 2  C=CCn1c(SCc2ccc3c(c2)OCO3)nc2scc(-c3ccco3)c2c1=O  Cytochrome P450 2C19 (Homo sapiens) (UniProt P33261)       active
 3  O=C(Nc1cccc(F)c1)N1CC2(CCN(C(=O)c3cc(C(F)(F)F)cc(C(F)(F)F)c3)CC2)C1  Cytochrome P450 2C19 (Homo sapiens) (UniProt P33261)     inactive
 4            CNCC[C@@H](Oc1ccccc1C)c1ccccc1  Cytochrome P450 2C19 (Homo sapiens) (UniProt P33261)     inactive
 5  c1ccc(-c2nc(N3CCCCCC3)nc(-n3ccnc3)n2)cc1  Cytochrome P450 2C19 (Homo sapiens) (UniProt P33261)       active
 6     COCCn1c(=O)c(-c2cccc(Cl)c2)nc2cncnc21  Cytochrome P450 2C19 (Homo sapiens) (UniProt P33261)     inactive
 7  CC[C@H]1C2=C3C(CC[C@H]4C(OCc5ccc(F)cc5C(F)(F)F)OC[C@](C)([C@@H]34)N(C(=O)OC(C)(C)C)C2)C(COC)C1COC (stereo partly drawn)  Cytochrome P450 2C19 (Homo sapiens) (UniProt P33261)     inactive
 8  O=[N+]([O-])c1c(NCCO)cc(Sc2nc3ccccc3s2)c2nonc12  Cytochrome P450 2C19 (Homo sapiens) (UniProt P33261)       active
 9  O=C(CN1C(=O)c2ccccc2C1=O)NCC(=O)OCC(=O)c1ccc(Br)cc1  Cytochrome P450 2C19 (Homo sapiens) (UniProt P33261)     inactive
10  CCN(C1CCCCC1)S(=O)(=O)c1ccc(S(=O)(=O)NCc2ccncc2)cc1  Cytochrome P450 2C19 (Homo sapiens) (UniProt P33261)       active
11  C=CCn1c(SCC(=O)N2CC(=O)Nc3ccccc32)nc2scc(-c3ccccc3)c2c1=O  Cytochrome P450 2C19 (Homo sapiens) (UniProt P33261)       active
12  CCNc1ncc2nc(-c3cc(F)cc(F)c3)c(=O)n(C[C@H]3CCCO3)c2n1  Cytochrome P450 2C19 (Homo sapiens) (UniProt P33261)     inactive
13  CN(C)c1ncc2nc(-c3ccc(F)cc3)c(=O)n(CCc3ccccc3)c2n1  Cytochrome P450 2C19 (Homo sapiens) (UniProt P33261)     inactive
14  COc1ncc2nc(-c3cc(F)cc(F)c3)c(=O)n(CCC#N)c2n1  Cytochrome P450 2C19 (Homo sapiens) (UniProt P33261)     inactive
15      CC(Oc1ccc(O)cc1)(P(=O)(O)O)P(=O)(O)O  Cytochrome P450 2C19 (Homo sapiens) (UniProt P33261)     inactive
16  Cc1ccc(-c2ccc(/C=N\NC(=O)c3cc4c(ccc5ccccc54)o3)o2)cc1[N+](=O)[O-]  Cytochrome P450 2C19 (Homo sapiens) (UniProt P33261)     inactive
17  CCOc1ccc(-n2c(SCC(=O)Nc3ccc4c(c3)OCCO4)nc3c(c2=O)SCC3)cc1  Cytochrome P450 2C19 (Homo sapiens) (UniProt P33261)       active
18  O=C1CC(c2cccs2)c2cc3c(cc2N1)OCO3 (stereo not drawn)  Cytochrome P450 2C19 (Homo sapiens) (UniProt P33261)       active
19                          C[C@@H](N)C(=O)O  Cytochrome P450 2C19 (Homo sapiens) (UniProt P33261)     inactive
20  CC(C)Cn1c(C(C)C)nc([N+](=O)[O-])c1S(=O)(=O)c1ccc(F)cc1  Cytochrome P450 2C19 (Homo sapiens) (UniProt P33261)       active
21  Cc1ccc(C(=O)C(OC(=O)CCC(=O)Nc2cccc(C)c2)c2ccccc2)cc1 (stereo not drawn)  Cytochrome P450 2C19 (Homo sapiens) (UniProt P33261)       active
22  COc1ccccc1CCn1c(=O)c(-c2cccs2)nc2cncnc21  Cytochrome P450 2C19 (Homo sapiens) (UniProt P33261)       active
23  C=CCn1c(SCc2ccccc2)nc2scc(-c3ccc(C)o3)c2c1=O  Cytochrome P450 2C19 (Homo sapiens) (UniProt P33261)     inactive
